Data origin: ChEMBL document CHEMBL4507278

- TARGET_OR_SYSTEM: Voltage-dependent L-type calcium channel subunit alpha-1C (diltiazem site) (Rattus norvegicus)
- Sequence (P22002 whole entry): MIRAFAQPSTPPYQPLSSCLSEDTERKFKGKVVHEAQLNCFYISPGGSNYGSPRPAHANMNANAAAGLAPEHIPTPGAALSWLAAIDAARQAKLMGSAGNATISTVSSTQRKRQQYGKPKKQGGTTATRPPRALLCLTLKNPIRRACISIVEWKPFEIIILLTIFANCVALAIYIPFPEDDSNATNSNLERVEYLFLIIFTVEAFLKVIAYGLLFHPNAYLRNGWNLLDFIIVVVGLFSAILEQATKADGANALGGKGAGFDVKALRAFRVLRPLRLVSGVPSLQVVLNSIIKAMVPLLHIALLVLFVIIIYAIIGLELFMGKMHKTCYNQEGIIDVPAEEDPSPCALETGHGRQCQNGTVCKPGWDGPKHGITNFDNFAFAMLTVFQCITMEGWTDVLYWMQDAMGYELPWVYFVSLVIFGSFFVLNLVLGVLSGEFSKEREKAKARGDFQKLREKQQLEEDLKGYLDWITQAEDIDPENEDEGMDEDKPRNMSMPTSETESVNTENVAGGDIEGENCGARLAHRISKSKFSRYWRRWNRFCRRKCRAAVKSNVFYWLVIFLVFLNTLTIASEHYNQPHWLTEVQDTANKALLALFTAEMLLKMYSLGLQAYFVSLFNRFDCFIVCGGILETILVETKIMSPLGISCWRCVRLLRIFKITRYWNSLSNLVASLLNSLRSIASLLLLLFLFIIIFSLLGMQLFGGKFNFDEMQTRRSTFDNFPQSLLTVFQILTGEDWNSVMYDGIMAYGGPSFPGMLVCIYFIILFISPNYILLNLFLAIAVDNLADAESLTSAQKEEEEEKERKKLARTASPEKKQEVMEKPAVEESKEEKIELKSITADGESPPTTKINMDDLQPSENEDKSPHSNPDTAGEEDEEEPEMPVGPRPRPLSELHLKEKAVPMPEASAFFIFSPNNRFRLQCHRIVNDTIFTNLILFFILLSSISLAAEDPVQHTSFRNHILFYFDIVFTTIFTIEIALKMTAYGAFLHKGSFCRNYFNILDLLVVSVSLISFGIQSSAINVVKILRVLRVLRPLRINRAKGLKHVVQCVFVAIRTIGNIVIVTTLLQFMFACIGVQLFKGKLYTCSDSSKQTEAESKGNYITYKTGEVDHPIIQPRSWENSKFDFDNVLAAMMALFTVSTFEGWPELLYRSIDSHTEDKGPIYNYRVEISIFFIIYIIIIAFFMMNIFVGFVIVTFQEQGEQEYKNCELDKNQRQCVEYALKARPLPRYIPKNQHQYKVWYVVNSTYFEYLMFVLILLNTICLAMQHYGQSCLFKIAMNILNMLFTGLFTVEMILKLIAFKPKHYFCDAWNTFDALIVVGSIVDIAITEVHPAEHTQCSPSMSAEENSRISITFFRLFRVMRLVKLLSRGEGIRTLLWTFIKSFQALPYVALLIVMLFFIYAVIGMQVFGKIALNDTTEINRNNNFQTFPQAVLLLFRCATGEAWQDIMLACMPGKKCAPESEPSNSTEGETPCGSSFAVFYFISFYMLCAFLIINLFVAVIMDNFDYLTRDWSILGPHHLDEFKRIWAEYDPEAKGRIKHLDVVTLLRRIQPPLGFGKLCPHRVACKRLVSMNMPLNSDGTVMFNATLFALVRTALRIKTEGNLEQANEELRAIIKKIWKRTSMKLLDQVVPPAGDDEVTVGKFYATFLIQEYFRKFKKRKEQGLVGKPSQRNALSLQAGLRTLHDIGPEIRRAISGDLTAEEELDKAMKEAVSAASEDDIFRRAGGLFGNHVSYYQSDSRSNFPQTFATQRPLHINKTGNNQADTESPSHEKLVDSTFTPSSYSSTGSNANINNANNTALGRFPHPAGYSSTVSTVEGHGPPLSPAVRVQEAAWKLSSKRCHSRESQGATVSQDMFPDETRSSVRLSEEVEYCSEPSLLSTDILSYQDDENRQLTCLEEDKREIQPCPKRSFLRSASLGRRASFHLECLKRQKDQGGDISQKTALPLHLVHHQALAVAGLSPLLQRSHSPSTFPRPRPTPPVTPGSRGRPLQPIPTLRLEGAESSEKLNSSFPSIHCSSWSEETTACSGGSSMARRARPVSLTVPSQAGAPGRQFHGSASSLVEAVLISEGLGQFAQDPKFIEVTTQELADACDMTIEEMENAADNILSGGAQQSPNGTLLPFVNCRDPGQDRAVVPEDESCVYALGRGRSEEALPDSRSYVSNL
- PROTOCOL: CA+/DILSI/RA Eurofins-Panlabs selectivity data (BI)
- TEST_CONTEXT: compound concentration 10 uM, read-out: % Ctrl
RECORDED_ENDPOINT: activity at 10 µM

Return activity at 10 µM (reported value) for this compound: CS(=O)(=O)c1cc(C2(NC(=O)c3cncc4c3cnn4-c3ccc(F)cc3)CC2)ccn1 58% (not active)

====

- TARGET_OR_SYSTEM: Voltage-dependent L-type calcium channel subunit alpha-1C (DHP site) (Rattus norvegicus, UniProt P22002)
- Sequence (P22002 whole entry): as above
- PROTOCOL: CA+/DHPSI/RA Eurofins-Panlabs selectivity data (BI)
- TEST_CONTEXT: compound concentration 10 uM, read-out: % Ctrl
RECORDED_ENDPOINT: activity at 10 µM

Identify measured activity at 10 µM corresponding to CS(=O)(=O)c1cc(C2(NC(=O)c3cncc4c3cnn4-c3ccc(F)cc3)CC2)ccn1 [BI 639667] 71% (not active)

====

- TARGET_OR_SYSTEM: hERG (KCNH2) (Homo sapiens, UniProt Q12809)
- Sequence (Q12809 whole entry): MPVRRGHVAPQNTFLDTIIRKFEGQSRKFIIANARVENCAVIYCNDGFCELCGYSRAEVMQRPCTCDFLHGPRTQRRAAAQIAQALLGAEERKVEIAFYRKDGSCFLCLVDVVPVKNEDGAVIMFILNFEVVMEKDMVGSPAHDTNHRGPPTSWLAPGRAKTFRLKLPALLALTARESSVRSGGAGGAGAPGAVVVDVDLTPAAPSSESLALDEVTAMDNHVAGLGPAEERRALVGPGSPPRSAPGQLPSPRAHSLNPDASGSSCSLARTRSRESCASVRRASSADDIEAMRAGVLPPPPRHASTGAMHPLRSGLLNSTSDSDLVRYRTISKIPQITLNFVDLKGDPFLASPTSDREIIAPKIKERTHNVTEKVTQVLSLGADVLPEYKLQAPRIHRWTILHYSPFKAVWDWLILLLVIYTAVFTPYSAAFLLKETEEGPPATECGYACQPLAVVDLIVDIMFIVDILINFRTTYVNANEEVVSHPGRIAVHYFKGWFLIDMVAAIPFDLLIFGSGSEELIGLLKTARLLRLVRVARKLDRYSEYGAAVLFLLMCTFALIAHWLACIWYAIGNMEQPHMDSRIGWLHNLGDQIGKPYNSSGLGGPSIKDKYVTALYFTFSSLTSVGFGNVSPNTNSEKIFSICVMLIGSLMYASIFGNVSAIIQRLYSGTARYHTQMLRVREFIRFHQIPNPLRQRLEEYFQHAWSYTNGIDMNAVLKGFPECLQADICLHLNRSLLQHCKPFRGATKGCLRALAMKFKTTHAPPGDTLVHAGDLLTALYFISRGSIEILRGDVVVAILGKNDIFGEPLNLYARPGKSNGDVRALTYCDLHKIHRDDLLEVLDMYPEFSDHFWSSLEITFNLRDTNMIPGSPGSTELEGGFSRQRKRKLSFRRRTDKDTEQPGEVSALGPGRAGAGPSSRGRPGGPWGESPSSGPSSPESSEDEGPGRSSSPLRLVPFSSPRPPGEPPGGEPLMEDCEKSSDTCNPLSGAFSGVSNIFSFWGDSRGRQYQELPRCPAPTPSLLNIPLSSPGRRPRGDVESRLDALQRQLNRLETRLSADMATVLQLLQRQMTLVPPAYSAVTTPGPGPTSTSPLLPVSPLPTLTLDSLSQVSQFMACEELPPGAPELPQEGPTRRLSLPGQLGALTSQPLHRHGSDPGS
- PROTOCOL: K+/HERG Eurofins-Panlabs selectivity data (BI)
- TEST_CONTEXT: compound concentration 10 uM, read-out: % Ctrl
RECORDED_ENDPOINT: activity at 10 µM

For the compound CS(=O)(=O)c1cc(C2(NC(=O)c3cncc4c3cnn4-c3ccc(F)cc3)CC2)ccn1 , report activity at 10 µM. 104% (not active)
